Study Target: recombinant human IDE (Homo sapiens)
Sequence (P14735 whole entry): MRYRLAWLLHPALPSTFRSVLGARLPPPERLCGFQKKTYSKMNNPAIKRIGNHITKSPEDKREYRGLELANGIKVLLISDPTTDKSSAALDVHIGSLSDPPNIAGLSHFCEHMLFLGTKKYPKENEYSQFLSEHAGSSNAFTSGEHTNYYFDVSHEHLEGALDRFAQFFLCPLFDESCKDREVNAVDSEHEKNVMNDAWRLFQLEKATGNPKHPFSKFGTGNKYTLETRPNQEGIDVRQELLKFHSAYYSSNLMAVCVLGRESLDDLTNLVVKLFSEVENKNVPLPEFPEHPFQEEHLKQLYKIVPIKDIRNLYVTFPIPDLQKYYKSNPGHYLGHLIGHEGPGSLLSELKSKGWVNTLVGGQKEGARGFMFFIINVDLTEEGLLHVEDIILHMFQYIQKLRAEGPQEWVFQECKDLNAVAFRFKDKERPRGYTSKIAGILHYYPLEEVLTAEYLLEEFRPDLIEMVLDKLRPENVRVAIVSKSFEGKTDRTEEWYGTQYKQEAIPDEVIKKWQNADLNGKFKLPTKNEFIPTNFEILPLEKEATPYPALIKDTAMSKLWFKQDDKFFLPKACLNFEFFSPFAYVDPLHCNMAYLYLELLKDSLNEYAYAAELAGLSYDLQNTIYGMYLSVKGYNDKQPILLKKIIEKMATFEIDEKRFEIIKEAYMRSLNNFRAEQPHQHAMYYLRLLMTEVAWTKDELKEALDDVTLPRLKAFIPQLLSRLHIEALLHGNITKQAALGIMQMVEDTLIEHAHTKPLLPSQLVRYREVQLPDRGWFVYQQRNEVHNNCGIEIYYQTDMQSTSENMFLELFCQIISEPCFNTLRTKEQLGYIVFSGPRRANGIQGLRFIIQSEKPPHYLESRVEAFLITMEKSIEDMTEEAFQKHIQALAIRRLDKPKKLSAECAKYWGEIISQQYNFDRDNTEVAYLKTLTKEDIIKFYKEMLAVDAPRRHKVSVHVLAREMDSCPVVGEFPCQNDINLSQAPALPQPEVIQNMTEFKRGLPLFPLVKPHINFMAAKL
Test Summary: IDE fluorescence polarization-based degradation assays
Assay type: biochemical
Assay Setup: Ki Aβ, substrate Aβ; Ki from IC50 via Cheng-Prusoff
pKi: −log10 of the molar value.
Give rule met when the value for pKi is at least 5. Give rule not met when it is less.

input: Can `Cc1cc(NS(=O)(=O)c2cccs2)c(=S)n(O)c1` be said to have pKi at or above 5?
output: rule met

input: Can `Cc1ccc(NS(=O)(=O)c2cccs2)c(=S)n1O` be said to have pKi at or above 5?
output: rule met

input: Can `O=S(=O)(Nc1ccc(=S)n(O)c1)c1cccs1` be said to have pKi at or above 5?
output: rule not met

input: Can `O=S(=O)(Nc1cccn(O)c1=S)C1CC1` be said to have pKi at or above 5?
output: rule not met

input: Can `O=S(=O)(Nc1cccn(O)c1=S)c1cccs1` be said to have pKi at or above 5?
output: rule met

input: Can `O=C(Nc1cccn(O)c1=S)c1ccccc1` be said to have pKi at or above 5?
output: rule not met

input: Can `O=S(=O)(Nc1ccc[nH]c1=S)c1cccs1` be said to have pKi at or above 5?
output: rule not met

input: Can `Cc1csc(S(=O)(=O)Nc2cccn(O)c2=S)c1` be said to have pKi at or above 5?
output: rule met

input: Can `O=C(Nc1cccn(O)c1=S)c1cccs1` be said to have pKi at or above 5?
output: rule not met
